Task for the reader: assign each of the following molecules its reported selectivity ratio.
- PROTOCOL NOTES: Selectivity index, ratio of IC50 for rat L6 cells to IC50 for axenic amastigote forms of Leishmania donovani MHOM/ET/67/L82
- Format: toxicity, cell-based
- STATED CONDITIONS: read-out: Ratio IC50
Give bare numbers.

The cases that follow already have their selectivity ratio on record.
INSERT INTO assay_data (chemical_string, reported_value) VALUES
  ('Cc1csc(C(=O)NCCCn2cnc([N+](=O)[O-])n2)c1', 4),
  ('O=C(NCCCCn1cnc([N+](=O)[O-])n1)c1nc2ccccc2s1', 6);

Proceeding to the next molecule to report its selectivity ratio.
-- ask selectivity ratio lookup needed for `O=[N+]([O-])c1ncn(CCCCNS(=O)(=O)c2cc(Cl)c(Cl)s2)n1` , thanks.
-- reply 9

* * *

Task for the reader: assign each of the following compounds its reported selectivity ratio.
- PROTOCOL NOTES: Selectivity index, ratio of IC50 for rat L6 cells to IC50 for bloodstream forms of Trypanosoma brucei rhodesiense STIB 900
- Format: toxicity, cell-based
- STATED CONDITIONS: read-out: Ratio IC50
Numbers only.

The cases that follow already have their selectivity ratio on record.
INSERT INTO results (chemical_string, reported_value) VALUES
  ('O=[N+]([O-])c1ncn(CCCNS(=O)(=O)c2cc(Cl)c(Cl)s2)n1', 200),
  ('O=C(NCCCCn1cnc([N+](=O)[O-])n1)c1nc2ccccc2s1', 89),
  ('Cc1csc(C(=O)NCCCn2cnc([N+](=O)[O-])n2)c1', 176);

-- ask selectivity ratio lookup needed for `O=[N+]([O-])c1ncn(CCCCNS(=O)(=O)c2ccc(Cl)s2)n1` , thanks.
-- reply 247

* * *

- Test system: Trypanosoma cruzi
- PROTOCOL NOTES: Antiparasitic activity against trypomastigote forms of Trypanosoma cruzi Tulahuen C2C4 infected in rat L6 cells assessed as inhibition of growth after 96 hrs by inverted microscopy
- Assay type: functional, organism-based
- STATED CONDITIONS: Tulahuen C2C4, L6, 96 h
pIC50: −log10 of the molar value.
Met means recorded pIC50 is 5 or above; Not met means it is below 5.

INSERT INTO measurements (chemical_string, system, assigned_category) VALUES
  ('Cc1ccoc1C(=O)NCCCn1cnc([N+](=O)[O-])n1', 'Trypanosoma cruzi', 'Not met');

-- ask Check this compound for pIC50 at or above 5: `O=C(Cn1ccnc1[N+](=O)[O-])NCc1ccccc1`
-- reply Met

-- ask Check this compound for pIC50 at or above 5: `Cc1csc(C(=O)NCCCn2cnc([N+](=O)[O-])n2)c1`
-- reply Met

-- ask Check this compound for pIC50 at or above 5: `O=C(NCCCCn1cnc([N+](=O)[O-])n1)c1sc2ccccc2c1Cl`
-- reply Met

* * *

- Tested on: L6
- PROTOCOL NOTES: Cytotoxicity against rat L6 cells after 72 hrs by alamar blue assay
- Format: cell-based
- STATED CONDITIONS: L6, 72 h
EXPERIMENTAL READOUT: IC50 (µM)
One number for each entry, in µM.

INSERT INTO measurements (chemical_string, system, reported_value) VALUES
  ('O=[N+]([O-])c1ncn(CCCCNS(=O)(=O)c2ccc(Cl)s2)n1', 'L6', 128),
  ('O=C(NCCCCn1cnc([N+](=O)[O-])n1)c1nc2ccccc2s1', 'L6', 154),
  ('O=[N+]([O-])c1ncn(CCCNS(=O)(=O)c2cc(Cl)c(Cl)s2)n1', 'L6', 101),
  ('Cc1csc(C(=O)NCCCn2cnc([N+](=O)[O-])n2)c1', 'L6', 173),
  ('O=[N+]([O-])c1ncn(CCCCNS(=O)(=O)c2cc(Cl)c(Cl)s2)n1', 'L6', 97);

Required: IC50, one value per molecule below.
1. O=[N+]([O-])c1nccn1CCCNS(=O)(=O)c1cc(Cl)c(Cl)s1
2. O=[N+]([O-])c1nccn1CCCNS(=O)(=O)c1cc(Cl)sc1Cl

-- reply
1: 75; 2: 108
